pIC50: −log10 of the molar value.
Parameter 'readout' = pIC50; parameter 'system' = Human Rheumatoid Synovial Collagenase (Homo sapiens).
Sequence (P03956 100-469): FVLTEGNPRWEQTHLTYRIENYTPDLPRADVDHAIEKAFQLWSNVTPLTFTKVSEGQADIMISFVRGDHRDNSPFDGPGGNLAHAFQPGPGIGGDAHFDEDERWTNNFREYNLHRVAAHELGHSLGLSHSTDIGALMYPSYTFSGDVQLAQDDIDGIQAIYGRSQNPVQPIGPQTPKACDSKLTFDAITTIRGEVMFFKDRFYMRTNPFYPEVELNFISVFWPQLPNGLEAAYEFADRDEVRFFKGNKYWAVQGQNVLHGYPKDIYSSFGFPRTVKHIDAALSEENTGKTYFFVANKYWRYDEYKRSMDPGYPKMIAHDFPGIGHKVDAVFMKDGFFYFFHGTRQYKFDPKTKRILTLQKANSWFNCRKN
VALUE KIND: pIC50

MOLECULE | COMPARATIVE SIGN | RESULT NUMBER
CNC(=O)[C@H](Cc1ccc(OC)cc1)NC(=O)C(=CC(=O)NO)CC(C)C | = | 6.15
CNC(=O)[C@H](Cc1ccc(OC)cc1)NC(=O)C(CC(=O)NO)Cc1ccccc1 (single isomer, unassigned) | < | 4.00
CNC(=O)[C@H](Cc1ccc(OC)cc1)NC(=O)C(CC(C)C)C(C)C(=O)NO (single isomer, unassigned) [3(D)] | = | 6.52
CNC(=O)[C@H](Cc1ccc(OC)cc1)NC(=O)C(CC(C)C)C(C)C(=O)NO (single isomer, unassigned) [3(C)] | = | 7.70
CCCCC(CC(=O)NO)C(=O)N[C@@H](Cc1ccc(OC)cc1)C(=O)NC (single isomer, unassigned) | = | 6.00
CCCCC(C(=O)NO)C(CC(C)C)C(=O)N[C@@H](Cc1ccc(OC)cc1)C(=O)NC (single isomer, unassigned) | = | 6.70
CNC(=O)[C@H](Cc1ccc(O)cc1)NC(=O)C(CC(=O)NO)CC(C)C (single isomer, unassigned) | = | 6.28
